Data origin, for the record: the supplement of paper PMC8728848

Target: Fuc(a1-3)[Gal(b1-4)]GlcNAc
Assay: glycan array binding signal (z-score within array); higher = stronger binding
Details: glycan notation: IUPAC condensed, linker removed
Many of the other results were omitted from the sample, so the strongest signals are more common in it than they were.
The entries below come with measured glycan array binding signal (z-score) values attached.
Lab note: jot the number down without any unit.

Worked examples follow.
Problem: Give the measured glycan array binding signal (z-score) of SfaEH (Escherichia coli), Q1RDG5 (protein) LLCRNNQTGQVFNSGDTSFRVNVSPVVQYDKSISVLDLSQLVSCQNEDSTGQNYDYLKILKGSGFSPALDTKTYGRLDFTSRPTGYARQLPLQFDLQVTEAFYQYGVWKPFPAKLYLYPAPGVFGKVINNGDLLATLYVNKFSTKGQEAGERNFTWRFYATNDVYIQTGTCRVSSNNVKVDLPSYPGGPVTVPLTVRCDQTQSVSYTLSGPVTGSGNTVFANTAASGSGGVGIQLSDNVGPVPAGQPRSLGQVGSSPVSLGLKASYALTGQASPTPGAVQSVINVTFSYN .
Result: -0.018

Problem: Give the measured glycan array binding signal (z-score) of LecB LY19 (Pseudomonas aeruginosa) (protein) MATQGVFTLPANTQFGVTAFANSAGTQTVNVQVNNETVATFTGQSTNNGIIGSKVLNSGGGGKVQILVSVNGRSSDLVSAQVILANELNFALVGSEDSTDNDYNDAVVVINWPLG .
Result: 1.65

Turning now to a further record.
Problem: Give the measured glycan array binding signal (z-score) of SpnanA (Streptococcus pneumoniae), P62575 (protein) MVIEKEDVETNASNGQRVDLSSELDKLKKLENATVHMEFKPDAKAPAFYNLFSVSSATKKDEYFTMAVYNNTATLEGRGSDGKQFYNNYNDAPLKVKPGQWNSVTFTVEKPTAELPKGRVRLYVNGVLSRTSLRSGNFIKDMPDVTHVQIGATKRANNTVWGSNLQIRNLTVYNRALTPEEVQKRS .
Result: -0.28
